Data provenance: paper PMC4278837

- experimental-target: huPA-H99Y Q192A (Homo sapiens, UniProt P00749, H272Y/Q373A)
- method: Ki for inhibition of huPA-H99Y-Q192A, chromogenic substrate
- Type: biochemical
- Parameters: To ensure that the uPAs purified from the conditioned media were completely in the two-chain form, they were treated with plasmin; hexa-His (C); made in house; host or cells: HEK293 6E suspension cells
- condition-details: 37°C; means ± S.D.; read-out: K i for inhibition of huPA-H99Y-Q192A
Bridge positions count the residues as written; N and C are the ends. Square brackets hold non-standard residues; d marks the D form. Peptide text beside a SMILES is read from it. Ala(1-amidino-4-piperidyl) = N=C(N)N1CCC(C[C@H](N)C(=O)O)CC1; Phe(4-guanidino) = N=C(N)Nc1ccc(C[C@H](N)C(=O)O)cc1
property-name: Ki (nM)
Unit nM implied. Number only.

compound: CC(=O)N[C@H]1CSSC[C@@H](C(N)=O)NC(=O)[C@H](CC(=O)O)NC(=O)[C@H](CC(C)C)NC(=O)[C@H](Cc2ccc(O)cc2)NC(=O)[C@H](CC2CCN(C(=N)N)CC2)NC(=O)[C@H](CO)NC(=O)[C@H](Cc2ccc(O)cc2)NC(=O)[C@H](C)NC(=O)[C@@H]2CCCN2C1=O [Mupain-1-16] (Ac-CPAYS[Ala(1-amidino-4-piperidyl)]YLDC-NH2; disulfide 1-10)
unit-name: nM
observed: 2710

Please fill in: Ki reported for CC(=O)N[C@H]1CSSC[C@@H](C(N)=O)NC(=O)[C@H](C)NC(=O)[C@H](CC(C)C)NC(=O)[C@H](Cc2ccc(O)cc2)NC(=O)[C@H](CC2CCN(C(=N)N)CC2)NC(=O)[C@H](CO)NC(=O)[C@H](Cc2ccc(O)cc2)NC(=O)[C@H](C)NC(=O)[C@@H]2CCCN2C1=O [Mupain-1-16 D9A] (Ac-CPAYS[Ala(1-amidino-4-piperidyl)]YLAC-NH2; disulfide 1-10) = 438

Please fill in: Ki reported for CC(=O)N[C@H]1CSSC[C@@H](C(N)=O)NC(=O)[C@H](CC(=O)O)NC(=O)[C@H](CC(C)C)NC(=O)[C@H](Cc2ccc(O)cc2)NC(=O)[C@H](Cc2ccc(NC(=N)N)cc2)NC(=O)[C@H](CO)NC(=O)[C@H](Cc2ccc(O)cc2)NC(=O)[C@H](C)NC(=O)[C@@H]2CCCN2C1=O [Mupain-1-12, CPAYS[4-guanidino-phenyl-alanine]YLDC] (Ac-CPAYS[Phe(4-guanidino)]YLDC-NH2; disulfide 1-10) = 2350

Please fill in: Ki reported for CC(=O)N[C@H]1CSSC[C@@H](C(N)=O)NC(=O)[C@H](C)NC(=O)[C@H](CC(C)C)NC(=O)[C@H](Cc2ccc(O)cc2)NC(=O)[C@H](CCCNC(=N)N)NC(=O)[C@H](CO)NC(=O)[C@H](Cc2ccc(O)cc2)NC(=O)[C@H](C)NC(=O)[C@@H]2CCCN2C1=O [Mupain-1 D9A, CPAYSRYLAC] (Ac-CPAYSRYLAC-NH2; disulfide 1-10) = 4850

Please fill in: Ki reported for CC(=O)N[C@H]1CSSC[C@@H](C(N)=O)NC(=O)[C@H](C)NC(=O)[C@H](CC(C)C)NC(=O)[C@H](Cc2ccc(O)cc2)NC(=O)[C@H](Cc2ccc(NC(=N)N)cc2)NC(=O)[C@H](CO)NC(=O)[C@H](Cc2ccc(O)cc2)NC(=O)[C@H](C)NC(=O)[C@@H]2CCCN2C1=O [Mupain-1-12 D9A, CPAYS[4-guanidino-phenyl-alanine]YLAC] (Ac-CPAYS[Phe(4-guanidino)]YLAC-NH2; disulfide 1-10; N-terminus assumed) = 438
